The measurements presented in this section are drawn from patent US10787424B2.

study-target: human p300 CH1 domain (p300-CH1) (Homo sapiens, UniProt Q09472)
Construct: human p300 CH1 domain (amino acid residues 323-423); GST (N, cleaved yes); made in house; host or cells: E. coli BL21(DE3)
Sequence (Q09472 323-423): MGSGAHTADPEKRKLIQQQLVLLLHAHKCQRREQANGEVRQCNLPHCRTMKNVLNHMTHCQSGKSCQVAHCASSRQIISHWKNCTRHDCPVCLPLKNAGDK
test-summary: Tryptophan fluorescence binding assay for p300-CH1
conditions-used: p300-CH1, text value; read-out: Kd for p300-CH1
pKd: −log10 of the molar value.
property-measured: pKd

Exercise: # lookup: pKd of CC(C)C[C@@H]1NCCN([C@@H](C)C(=O)N2CCN([C@@H](CCC(N)=O)C(N)=O)C(=O)[C@@H]2C)C1=O [OHM 22, LAAQ]
Solution: < 4.52
